- Test system: Leishmania amazonensis
- Measurement Description: Antileishmanial activity against promastigote stage of Leishmania amazonensis MHOM/BR/75/Josefa assessed as reduction in parasitic count after 72 hrs by Neubauer hemocytometry
- Type: functional, organism-based
pIC50: −log10 of the molar value.
Rule: pIC50 of 5 or more gives fulfilled; anything lower gives not fulfilled.

Record excerpt, results attached:
- Substance Smiles: "CC/C(=C\\c1ccc(Cl)cc1)C(=O)/C=C/c1cccc(OC)c1OC"
  Class Label: "fulfilled"
- Substance Smiles: "COc1ccc(/C=C(\\C)C(=O)/C=C/c2ccc(/C=C/C(=O)/C(C)=C/c3ccc(OC)cc3)cc2)cc1"
  Class Label: "not fulfilled"
- Substance Smiles: "COc1ccc(/C=C(\\C)C(=O)/C=C/c2cc(OC)c(OC)c(OC)c2)cc1"
  Class Label: "fulfilled"
- Substance Smiles: "COc1ccc(/C=C(\\C)C(=O)/C=C/c2ccc(Br)cc2)cc1"
  Class Label: "not fulfilled"

Moving on to the next compound.
hey, is pIC50 for this one >= 5? CC/C(=C\c1ccc(Cl)cc1)C(=O)/C=C/c1ccccc1Br
fulfilled

====

- System: Trypanosoma cruzi
- Measurement Description: Antitrypanosomal activity against epimastigote stage of Trypanosoma cruzi Y assessed as reduction in parasitic count after 96 hrs by Neubauer hemocytometry
- Format: functional, organism-based
Quantity: log10 IC50 (log10 of the value in µM)
Transform log10 | Measure IC50 | Unit µM

Reference set (8 entries):
- Substance Smiles: "CC/C(=C\\c1ccc(Cl)cc1)C(=O)/C=C/c1ccc(Cl)cc1"
  Numeric Value: 1.01
- Substance Smiles: "COc1ccc(/C=C(\\C)C(=O)/C=C/c2cccc(Cl)c2Cl)cc1"
  Numeric Value: 1.23
- Substance Smiles: "COc1ccc(/C=C(\\C)C(=O)/C=C/c2ccc(Cl)cc2)cc1"
  Numeric Value: 1.28
- Substance Smiles: "CC/C(=C\\c1ccc(Cl)cc1)C(=O)/C=C/c1cccc(OC)c1OC"
  Numeric Value: 0.74
- Substance Smiles: "CC/C(=C\\c1ccc(Cl)cc1)C(=O)/C=C/c1ccc([N+](=O)[O-])cc1"
  Numeric Value: 0.40
- Substance Smiles: "COc1ccc(/C=C(\\C)C(=O)/C=C/c2ccccc2Br)cc1"
  Numeric Value: 1.34
- Substance Smiles: "CC/C(=C\\c1ccc(Cl)cc1)C(=O)/C=C/c1ccccc1Br"
  Numeric Value: 0.26
- Substance Smiles: "COc1ccc(/C=C(\\C)C(=O)/C=C/c2ccc(F)cc2)cc1"
  Numeric Value: 1.18

Consider the compound COc1ccc(/C=C(\C)C(=O)/C=C/c2ccccc2F)cc1 and give its measured log10 IC50.
1.18

Now the same for COc1ccc(/C=C(\C)C(=O)/C=C/c2cccc(Br)c2)cc1
1.24

====

- Test system: Trypanosoma cruzi
- Measurement Description: Antitrypanosomal activity against trypomastigote stage of Trypanosoma cruzi Y assessed as reduction in parasitic viability after 24 hrs by Pizzi-Brener method
- Assay type: functional, organism-based
// reported pEC50 per item
Please note pEC50 is a logarithmic value: minus log10 of concentration in mol/L. Answer with that number alone.

Reference set (9 entries):
- Substance Smiles: "CC/C(=C\\c1ccc(Cl)cc1)C(=O)/C=C/c1ccc2c(c1)OCO2"
  Quantity: "pEC50"
  Numeric Value: 5.12
- Substance Smiles: "COc1ccc(/C=C(\\C)C(=O)/C=C/c2cccc(Cl)c2Cl)cc1"
  Quantity: "pEC50"
  Numeric Value: 4.83
- Substance Smiles: "CC/C(=C\\c1ccc(Cl)cc1)C(=O)/C=C/c1ccccc1Br"
  Quantity: "pEC50"
  Numeric Value: 4.70
- Substance Smiles: "COc1ccc(/C=C(\\C)C(=O)/C=C/c2c(Cl)cccc2Cl)cc1"
  Quantity: "pEC50"
  Numeric Value: 4.55
- Substance Smiles: "COc1ccc(/C=C(\\C)C(=O)/C=C/c2ccccc2Br)cc1"
  Quantity: "pEC50"
  Numeric Value: 4.60
- Substance Smiles: "CC/C(=C\\c1ccc(Cl)cc1)C(=O)/C=C/c1cccc(OC)c1OC"
  Quantity: "pEC50"
  Numeric Value: 4.72
- Substance Smiles: "COc1ccc(/C=C(\\C)C(=O)/C=C/c2ccccc2F)cc1"
  Quantity: "pEC50"
  Numeric Value: 4.17
- Substance Smiles: "CC/C(=C\\c1ccc(Cl)cc1)C(=O)/C=C/c1ccc(Cl)cc1"
  Quantity: "pEC50"
  Numeric Value: 4.59
- Substance Smiles: "CC/C(=C\\c1ccc(Cl)cc1)C(=O)/C=C/c1ccc([N+](=O)[O-])cc1"
  Quantity: "pEC50"
  Numeric Value: 4.75

Consider the molecule COc1ccc(/C=C(\C)C(=O)/C=C/c2ccc(Br)cc2)cc1 and give its measured pEC50.
4.68
